# Study system: MAP3K2 (human)
# Procedure details: ELISA
# Condition label: compound 0.02 µM
Property label: inhibition (%)
Report as a plain number; the unit % is understood.

CNC(=O)c1ccccc1Sc1ccc2c(/C=C/c3ccccn3)n[nH]c2c1 1.9
CNC(=O)c1cc(Oc2ccc(NC(=O)Nc3ccc(Cl)c(C(F)(F)F)c3)cc2)ccn1 5.2
COc1cc2c(Oc3ccc4[nH]c(C)cc4c3F)ncnc2cc1OCCCN1CCCC1 1.9

Moving on to the next compound.
Enquiry: // query inhibition value for entry `Cc1ccc(Nc2nccc(N(C)c3ccc4c(C)n(C)nc4c3)n2)cc1S(N)(=O)=O`
Return: -4

* * *

# Study system: UniProt:P21709
# Sequence (P21709 whole entry, looked up): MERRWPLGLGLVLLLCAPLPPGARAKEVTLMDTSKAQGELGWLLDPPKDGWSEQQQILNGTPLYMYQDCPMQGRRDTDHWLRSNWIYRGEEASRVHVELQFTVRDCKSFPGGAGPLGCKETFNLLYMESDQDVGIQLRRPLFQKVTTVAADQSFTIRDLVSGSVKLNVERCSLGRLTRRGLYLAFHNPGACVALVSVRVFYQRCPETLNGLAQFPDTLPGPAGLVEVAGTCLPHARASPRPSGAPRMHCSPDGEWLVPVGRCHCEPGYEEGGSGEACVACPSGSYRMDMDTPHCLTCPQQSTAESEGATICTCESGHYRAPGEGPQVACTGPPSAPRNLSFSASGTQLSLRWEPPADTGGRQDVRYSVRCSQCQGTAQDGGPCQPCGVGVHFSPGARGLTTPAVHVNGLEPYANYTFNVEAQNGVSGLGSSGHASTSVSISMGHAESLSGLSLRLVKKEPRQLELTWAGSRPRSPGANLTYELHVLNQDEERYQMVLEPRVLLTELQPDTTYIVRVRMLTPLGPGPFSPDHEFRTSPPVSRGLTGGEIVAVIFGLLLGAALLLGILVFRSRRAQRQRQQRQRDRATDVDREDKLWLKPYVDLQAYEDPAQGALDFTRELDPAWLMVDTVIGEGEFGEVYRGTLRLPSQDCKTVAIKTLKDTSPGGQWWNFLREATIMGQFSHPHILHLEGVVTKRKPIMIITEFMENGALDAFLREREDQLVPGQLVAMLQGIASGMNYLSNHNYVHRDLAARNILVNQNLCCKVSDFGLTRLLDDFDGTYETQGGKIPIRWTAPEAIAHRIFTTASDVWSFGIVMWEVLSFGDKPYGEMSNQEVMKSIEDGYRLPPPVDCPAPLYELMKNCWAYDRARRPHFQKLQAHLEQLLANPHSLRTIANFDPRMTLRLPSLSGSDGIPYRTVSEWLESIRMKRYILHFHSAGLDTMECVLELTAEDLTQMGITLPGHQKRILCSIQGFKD
# Procedure details: Caliper, Mobility shift assay off-chip
# Condition label: compound 0.02 µM
Property label: inhibition (%)
Report as a plain number; the unit % is understood.

COc1cc2c(Oc3ccc4[nH]c(C)cc4c3F)ncnc2cc1OCCCN1CCCC1 -0.2

Enquiry: Requested read-out inhibition, target or system UniProt:P21709, entry `CNC(=O)c1ccccc1Sc1ccc2c(/C=C/c3ccccn3)n[nH]c2c1`
Return: -4.2

Enquiry: Then this compound: `Cc1ccc(Nc2nccc(N(C)c3ccc4c(C)n(C)nc4c3)n2)cc1S(N)(=O)=O`
Return: -1.3

Enquiry: Then this compound: `CNC(=O)c1cc(Oc2ccc(NC(=O)Nc3ccc(Cl)c(C(F)(F)F)c3)cc2)ccn1`
Return: -1.2

* * *

Listed here: items and their measured inhibition.
# Study system: NEK2 (human) (UniProt P51955)
# Sequence (P51955 whole entry, looked up): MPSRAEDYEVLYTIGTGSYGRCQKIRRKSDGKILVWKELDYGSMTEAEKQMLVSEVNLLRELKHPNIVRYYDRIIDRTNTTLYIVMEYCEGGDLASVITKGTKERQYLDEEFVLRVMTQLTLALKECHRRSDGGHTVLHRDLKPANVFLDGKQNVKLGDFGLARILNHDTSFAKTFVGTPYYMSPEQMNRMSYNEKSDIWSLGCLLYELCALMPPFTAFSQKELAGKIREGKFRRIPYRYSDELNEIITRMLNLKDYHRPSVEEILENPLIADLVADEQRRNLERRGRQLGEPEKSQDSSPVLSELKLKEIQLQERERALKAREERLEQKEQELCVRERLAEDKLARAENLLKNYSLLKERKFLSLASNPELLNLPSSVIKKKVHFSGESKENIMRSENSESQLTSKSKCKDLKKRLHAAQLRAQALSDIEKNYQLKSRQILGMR
# Procedure details: Caliper, Mobility shift assay off-chip
# Condition label: compound 0.2 µM
Report as a plain number; the unit % is understood.

Below, each entry is followed by its recorded inhibition result.
Cc1ccc(Nc2nccc(N(C)c3ccc4c(C)n(C)nc4c3)n2)cc1S(N)(=O)=O 12
CNC(=O)c1cc(Oc2ccc(NC(=O)Nc3ccc(Cl)c(C(F)(F)F)c3)cc2)ccn1 8.8
CCN(CC)CCNC(=O)c1c(C)[nH]c(/C=C2\C(=O)Nc3ccc(F)cc32)c1C 8.3

Enquiry: // query inhibition value for entry `COc1cc2c(Oc3ccc4[nH]c(C)cc4c3F)ncnc2cc1OCCCN1CCCC1`
Return: 5.3

* * *

# Study system: PHKG2 (human)
# Procedure details: Caliper, Mobility shift assay off-chip
# Condition label: compound 0.02 µM
Property label: inhibition (%)
Report as a plain number; the unit % is understood.

COc1cc2c(Oc3ccc4[nH]c(C)cc4c3F)ncnc2cc1OCCCN1CCCC1 -2.9

Enquiry: // query inhibition value for entry `CNC(=O)c1ccccc1Sc1ccc2c(/C=C/c3ccccn3)n[nH]c2c1`
Return: -3.3

Enquiry: Then this molecule: `Cc1ccc(Nc2nccc(N(C)c3ccc4c(C)n(C)nc4c3)n2)cc1S(N)(=O)=O`
Return: -3.5

Enquiry: Then this molecule: `CNC(=O)c1cc(Oc2ccc(NC(=O)Nc3ccc(Cl)c(C(F)(F)F)c3)cc2)ccn1`
Return: -3.1

* * *

Listed here: items and their measured inhibition.
# Study system: CAMK1D (human) (UniProt Q8IU85)
# Sequence (Q8IU85 whole entry, looked up): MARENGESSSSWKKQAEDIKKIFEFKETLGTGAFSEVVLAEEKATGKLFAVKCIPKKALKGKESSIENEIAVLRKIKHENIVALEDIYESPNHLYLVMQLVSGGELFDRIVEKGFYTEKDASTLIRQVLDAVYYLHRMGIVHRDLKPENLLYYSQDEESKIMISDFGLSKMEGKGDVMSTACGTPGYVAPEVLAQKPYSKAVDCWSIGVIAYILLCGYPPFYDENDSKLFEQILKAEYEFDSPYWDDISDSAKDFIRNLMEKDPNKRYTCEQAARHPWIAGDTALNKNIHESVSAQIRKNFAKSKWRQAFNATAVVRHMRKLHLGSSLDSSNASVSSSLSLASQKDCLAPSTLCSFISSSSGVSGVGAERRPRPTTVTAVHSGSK
# Procedure details: Caliper, Mobility shift assay off-chip
# Condition label: compound 0.02 µM
Report as a plain number; the unit % is understood.

CNC(=O)c1cc(Oc2ccc(NC(=O)Nc3ccc(Cl)c(C(F)(F)F)c3)cc2)ccn1 -6.7
CNC(=O)c1ccccc1Sc1ccc2c(/C=C/c3ccccn3)n[nH]c2c1 -0.8
Cc1ccc(Nc2nccc(N(C)c3ccc4c(C)n(C)nc4c3)n2)cc1S(N)(=O)=O -0.2

Moving on to the next compound.
Enquiry: // query inhibition value for entry `COc1cc2c(Oc3ccc4[nH]c(C)cc4c3F)ncnc2cc1OCCCN1CCCC1`
Return: 0.3
